This collection of values is drawn from ChEMBL document CHEMBL1201862.

- System: NCI-H522
- Protocol Summary: NCI tumour cell line growth inhibition, 48 h
The source made the active and inactive calls. No stated cut-off is given here; in the data, active = GI50 up to about 1.1 µM and inactive = higher.
Experimental Readout: GI50

Some molecules with recorded GI50:
Molecule	Experimental System	Result Value
CC/C=C/C[C@H](O)[C@H]1C[C@H]2O[C@H](CC(=O)OC)C[C@H]2O1	NCI-H522	> 100 µM (inactive)
C[N+](C)(C)c1ncnc2c1ncn2C1CC(O)C(CO)O1 (stereo not given)	NCI-H522	> 100 µM (inactive)
CN(C(=O)Cc1ccccc1)n1cn[n+](CC(=O)OC(C)(C)C)c1	NCI-H522	> 10 µM (inactive)

The record that follows has no GI50 shown yet.
Which GI50 is listed for "CCCNc1ncnc2[nH]ncc12" ?
> 100 µM (inactive)
